Exercise: for every item that follows, state its recorded Mean % inhibition of signal in confirmation assay.
Target: pre-existing anti-VH ADA in human serum
Test: ADA confirmation assay (MSD): 10 ug/mL test material against labelled DOM1H-131-206, mean of 10 sera
Answers are plain numbers, in %.

binder="DOM1H-131-206 L108Q (protein, name in Kabat numbering) VH: EVQLLESGGGLVQPGGSLRLSCAASGFTFAHETMVWVRQAPGKGLEWVSHIPPDGQDPFYADSVKGRFTISRDNSKNTLYLQMNSLRAEDTAVYHCALLPKRGPWFDYWGQGTQVTVSS" observed_result=90.9

Answer for every listed entry: what is its Mean % inhibition of signal in confirmation assay? The entries follow.
1. DOM1H-131-206 P14A, H91S (other, name in Kabat numbering, VH dAb variant) VH: EVQLLESGGGLVQAGGSLRLSCAASGFTFAHETMVWVRQAPGKGLEWVSHIPPDGQDPFYADSVKGRFTISRDNSKNTLYLQMNSLRAEDTAVYSCALLPKRGPWFDYWGQGTLVTVSS
2. DOM1H-131-206 G44E, L108Q (other, name in Kabat numbering, VH dAb variant) VH: EVQLLESGGGLVQPGGSLRLSCAASGFTFAHETMVWVRQAPGKELEWVSHIPPDGQDPFYADSVKGRFTISRDNSKNTLYLQMNSLRAEDTAVYHCALLPKRGPWFDYWGQGTQVTVSS
3. DOM1H-131-206 G44E, H91S (other, name in Kabat numbering, VH dAb variant) VH: EVQLLESGGGLVQPGGSLRLSCAASGFTFAHETMVWVRQAPGKELEWVSHIPPDGQDPFYADSVKGRFTISRDNSKNTLYLQMNSLRAEDTAVYSCALLPKRGPWFDYWGQGTLVTVSS
4. DT04-H-033 C-terminal AST (protein) VH: EVQLLESGGGLVQPGGSLRLSCAASGFTFADYGMAWVRQAPGKGLEWVSTISYNGLYTYYADSVKGRTISRDNSKNTLYLQMNSLRAEDTAVYYCAKYEYSPESDFDYWGQGTLVTVSSAST
5. DOM1H-131-206 P41A (other, name in Kabat numbering, VH dAb variant) VH: EVQLLESGGGLVQPGGSLRLSCAASGFTFAHETMVWVRQAAGKGLEWVSHIPPDGQDPFYADSVKGRFTISRDNSKNTLYLQMNSLRAEDTAVYHCALLPKRGPWFDYWGQGTLVTVSS
6. DOM1H-131-206 R83A (other, name in Kabat numbering, VH dAb variant) VH: EVQLLESGGGLVQPGGSLRLSCAASGFTFAHETMVWVRQAPGKGLEWVSHIPPDGQDPFYADSVKGRFTISRDNSKNTLYLQMNSLAAEDTAVYHCALLPKRGPWFDYWGQGTLVTVSS

**Result**
50.2
91.3
99.1
14
87.3
99.3

**Query** Give the reported value of Mean % inhibition of signal in confirmation assay for this record: DOM1H-131-206 G44E (other, name in Kabat numbering, VH dAb variant) VH: EVQLLESGGGLVQPGGSLRLSCAASGFTFAHETMVWVRQAPGKELEWVSHIPPDGQDPFYADSVKGRFTISRDNSKNTLYLQMNSLRAEDTAVYHCALLPKRGPWFDYWGQGTLVTVSS
**Result** 99.5
